From: patent US20260285998

- STUDY_SYSTEM: cynomolgus BCMA-Fc (cynomolgus)
- Sequence (chain, as listed by the source): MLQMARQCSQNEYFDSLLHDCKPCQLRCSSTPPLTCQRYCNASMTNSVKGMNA
- EXPERIMENT_NOTES: SPR, 25C
Listing of entries alongside the reported Kd.
Return type: number; implicit unit nM.

BINDER	REPORTED
P1AG5059 (E04_VH1a/VL1g) (antibody, V domains shown) VH: QVQLVQSGAEVKKPGASVKVSCKASGYTFTNYWMHWVRQAPGQGLEWMGIIHPNSGSTNYNEKFQGRVTMTRDTSTSTVYMELSSLRSEDTAVYYCARGIYDYPFAYWGQGTLVTVSS VL: DIQMTQSPSSLSASVGDRVTITCRASESVSIHGTHLMHWYQQKPGKAPKLLIYAASNLESGVPSRFSGSGSGTDFTLTISSLQPEDFATYFCQQSIEDPYTFGGGTKVEIK	30
P1AG5071 (54_VH2a/VL1a_T699S) (antibody, V domains shown) VH: EVQLLESGGGLVQPGGSLRLSCAASGFTFSNAWMDWVRQAPGKGLEWVSQITAKSNNYATYYADSVKGRFTISRDNSKNTLYLQMNSLRAEDTAVYYCTDDGYHWGQGTLVTVSS VL: AIQMTQSPSSLSASVGDRVTITCRASEDIRNGLAWYQQKPGKAPKLLIYNANSLHSGVPSRFSGSGSGTDFTLTISSLQPEDFATYYCEDTSKYPYTFGQGTKLEIK	6.5

Consider the additional binder presented here.
**Query** Provide only the value of recorded Kd for P1AG5078 (E04_VH1b/VL1d) (antibody, V domains shown) VH: QVQLVQSGAEVKKPGASVKVSCKASGYTFTNYWMHWVRQAPGQGLEWMGIIHPNSGSTNYNEKFQGRVTMTVDKSTSTVYMELSSLRSEDTAVYYCARGIYDYPFAYWGQGTLVTVSS VL: DIQMTQSPSSLSASVGDRVTITCRASESVSIHGTHLMHWYQQKPGKAPKLLIYAASNLQSGVPSRFSGSGSETDFTLTISSLQPEDFATYYCQQSIEDPYTFGGGTKVEIK
**Result** 22
